# system_under_test: hCB1 (Homo sapiens)
# Sequence (P21554 whole entry): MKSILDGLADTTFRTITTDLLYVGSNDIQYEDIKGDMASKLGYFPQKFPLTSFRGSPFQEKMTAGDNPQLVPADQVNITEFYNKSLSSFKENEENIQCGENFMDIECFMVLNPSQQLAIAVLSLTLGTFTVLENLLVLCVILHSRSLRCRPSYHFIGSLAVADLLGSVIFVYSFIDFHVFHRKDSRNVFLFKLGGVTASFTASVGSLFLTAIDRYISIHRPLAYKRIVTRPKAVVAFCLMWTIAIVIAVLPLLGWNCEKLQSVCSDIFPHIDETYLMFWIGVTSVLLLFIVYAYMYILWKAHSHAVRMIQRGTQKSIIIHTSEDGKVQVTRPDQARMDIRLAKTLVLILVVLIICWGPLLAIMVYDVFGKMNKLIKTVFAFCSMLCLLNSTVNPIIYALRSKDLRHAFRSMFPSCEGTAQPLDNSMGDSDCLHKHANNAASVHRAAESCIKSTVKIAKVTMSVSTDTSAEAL
# procedure_details: bioSensAll ebBRET signaling profiling, hCB1
# Type: cell-based
# Set-up: host or cells: HEK293SL cells, transient PEI transfection
# reported_conditions: Log [Compound] (M) -9.15521; single replicate values, FigS6a
attribute_measured: Gi1 hCB1
I only need the number, thanks.

Solved entries:
Please look up its Gi1 hCB1: COC(=O)[C@@H]1[C@@H]2CCC[C@@H]2CN1C(=O)c1cc(C)n(-c2cccc(C(F)(F)F)c2)n1
1.029

Please look up its Gi1 hCB1: Cc1cc(C(=O)N2CC3(CCC3)[C@@H]2[C@H]2CCCO2)nn1-c1cccc(C(F)(F)F)c1 (single isomer, unassigned)
1.245

Please look up its Gi1 hCB1: CC(=O)C(c1cccs1)N(C)C(=O)c1cc(C)n(-c2cccc(C(F)(F)F)c2)n1 (stereo not shown)
2.463

Please look up its Gi1 hCB1: COc1cccc(C(NC(=O)c2cc(C)n(-c3cccc(C(F)(F)F)c3)n2)c2ccco2)c1 (stereo not shown)
2.463

Please look up its Gi1 hCB1: Cn1nc(-c2nnc(C(C)(C)Oc3ccc(Cl)cc3)o2)c2ccccc2c1=O
-5.159

Next:
Please look up its Gi1 hCB1: Cc1c(C(=O)OCC2CSc3ccccc3O2)cnn1Cc1ccccc1 (stereo not shown)
-0.4876

Please look up its Gi1 hCB1: COC(=O)C(NC(=O)c1cc(C)n(-c2cccc(F)c2)n1)c1cccs1 (stereo not shown)
0.7365

Please look up its Gi1 hCB1: Cc1cc(C(=O)N2CC3(CCC3)[C@@H]2[C@@H]2CCCO2)nn1-c1cccc(C(F)(F)F)c1
1.261

Please look up its Gi1 hCB1: Brc1cc2c(cc1Cc1noc(-c3cnn(CC4CC4)c3)n1)OCO2
-3.212

Please look up its Gi1 hCB1: Cn1nc(-c2nnc(C(C)(C)Oc3ccc(C(F)(F)F)cc3)o2)c2ccccc2c1=O
-4.764

###

# system_under_test: CB1 (rCB1) (Rattus norvegicus, UniProt P20272)
# Sequence (P20272 whole entry): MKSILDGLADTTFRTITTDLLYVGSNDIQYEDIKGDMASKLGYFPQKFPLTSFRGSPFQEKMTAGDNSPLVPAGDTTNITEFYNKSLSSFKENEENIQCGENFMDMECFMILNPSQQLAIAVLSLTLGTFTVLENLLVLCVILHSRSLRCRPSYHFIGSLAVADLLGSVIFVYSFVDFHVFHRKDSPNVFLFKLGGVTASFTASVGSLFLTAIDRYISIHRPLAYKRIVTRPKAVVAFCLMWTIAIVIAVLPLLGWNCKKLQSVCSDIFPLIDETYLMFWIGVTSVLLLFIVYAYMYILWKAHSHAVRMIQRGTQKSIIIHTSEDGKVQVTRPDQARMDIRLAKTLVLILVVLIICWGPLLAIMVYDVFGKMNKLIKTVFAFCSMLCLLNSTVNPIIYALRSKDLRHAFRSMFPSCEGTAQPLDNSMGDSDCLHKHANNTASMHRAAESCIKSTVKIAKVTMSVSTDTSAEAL
# procedure_details: Radioligand competition binding, [3H]-CP-55,940, rat brain membranes
# reported_conditions: read-out: Ki [95% CI]; rCB1, [3H]-CP-55,940
attribute_measured: pKi
A value of pKi is the negative decimal logarithm of a concentration given in moles per litre.

Solved entries:
Param readout= pKi; system= CB1 (rCB1) (Rattus norvegicus, UniProt P20272); entry= COC(=O)[C@](C)(NC(=O)c1cc(C)n(-c2cccc(C(F)(F)F)c2)n1)c1cccs1 ; returns value.
7.04

Param readout= pKi; system= CB1 (rCB1) (Rattus norvegicus, UniProt P20272); entry= COC(=O)[C@@H]1[C@@H]2CCC[C@@H]2CN1C(=O)c1cc(C)n(-c2cccc(C(F)(F)F)c2)n1 ; returns value.
6.60

Param readout= pKi; system= CB1 (rCB1) (Rattus norvegicus, UniProt P20272); entry= Cc1cc(C(=O)NC(c2ccccc2)c2ccco2)nn1-c1cccc(C#N)c1 (stereo not drawn) ; returns value.
6.52

Param readout= pKi; system= CB1 (rCB1) (Rattus norvegicus, UniProt P20272); entry= Cc1cc(C(=O)N(C)C(c2ccco2)c2ccco2)nn1-c1cccc(C(F)(F)F)c1 ; returns value.
5.87

Param readout= pKi; system= CB1 (rCB1) (Rattus norvegicus, UniProt P20272); entry= Cc1cc(C(=O)N(C)C(c2ccccc2)c2ccco2)nn1-c1cccc(C(F)(F)F)c1 (stereo not drawn) ; returns value.
6.07

Next:
Param readout= pKi; system= CB1 (rCB1) (Rattus norvegicus, UniProt P20272); entry= COC(=O)C(c1ccco1)N(C)C(=O)c1cc(C)n(-c2cccc(C(F)(F)F)c2)n1 (stereo not drawn) ; returns value.
6.03

Param readout= pKi; system= CB1 (rCB1) (Rattus norvegicus, UniProt P20272); entry= Cc1cc(C(=O)NC(c2ccccc2)c2ccco2)nn1-c1cccc(C(F)(F)F)c1 (stereo not drawn) ; returns value.
6.94

Param readout= pKi; system= CB1 (rCB1) (Rattus norvegicus, UniProt P20272); entry= COC(=O)[C@@H]1[C@@H]2CC[C@@H]2CN1C(=O)c1cc(C)n(-c2cccc(C(F)(F)F)c2)n1 ; returns value.
6.06

Param readout= pKi; system= CB1 (rCB1) (Rattus norvegicus, UniProt P20272); entry= CCCCCCC(C)(C)c1cc(O)c2c(c1)OC(C)(C)C1CCC(=O)CC21 (stereo not drawn) [Nabilone, reference compound] ; returns value.
8.64

Param readout= pKi; system= CB1 (rCB1) (Rattus norvegicus, UniProt P20272); entry= Cc1nn(Cc2ccc(Cl)cc2)c(C)c1C(=O)OCC1CSc2ccccc2O1 (stereo not drawn) ; returns value.
6.08

Param readout= pKi; system= CB1 (rCB1) (Rattus norvegicus, UniProt P20272); entry= COC(=O)[C@@H]1[C@@H]2CCC[C@@H]2CN1C(=O)c1cc(C)n(-c2cccc(Cl)c2)n1 (racemic) ; returns value.
5.92

Param readout= pKi; system= CB1 (rCB1) (Rattus norvegicus, UniProt P20272); entry= COC(=O)[C@H](c1cccs1)N(C)C(=O)c1cc(C)n(-c2cccc(C(F)(F)F)c2)n1 ; returns value.
5.76

Param readout= pKi; system= CB1 (rCB1) (Rattus norvegicus, UniProt P20272); entry= Cc1cc(C(=O)NC(c2ccco2)c2ccco2)nn1-c1cccc(C(F)(F)F)c1 ; returns value.
7.04

Param readout= pKi; system= CB1 (rCB1) (Rattus norvegicus, UniProt P20272); entry= COC(=O)C(NC(=O)c1cc(-c2ccccc2)n(-c2cccc(C(F)(F)F)c2)n1)c1cccs1 (stereo not drawn) ; returns value.
7.73

Param readout= pKi; system= CB1 (rCB1) (Rattus norvegicus, UniProt P20272); entry= CC(=O)C(c1cccs1)N(C)C(=O)c1cc(C)n(-c2cccc(C(F)(F)F)c2)n1 (stereo not drawn) ; returns value.
5.98

Param readout= pKi; system= CB1 (rCB1) (Rattus norvegicus, UniProt P20272); entry= CC(=O)C(C)(NC(=O)c1cc(C)n(-c2cccc(C(F)(F)F)c2)n1)c1cccs1 (stereo not drawn) ; returns value.
7.87

Param readout= pKi; system= CB1 (rCB1) (Rattus norvegicus, UniProt P20272); entry= COC(=O)[C@@H](c1cccs1)N(C)C(=O)c1cc(C)n(-c2cccc(C(F)(F)F)c2)n1 ; returns value.
5.84

Param readout= pKi; system= CB1 (rCB1) (Rattus norvegicus, UniProt P20272); entry= Cc1cc(C(=O)NC(C)(c2ccco2)c2ccco2)nn1-c1cccc(C(F)(F)F)c1 ; returns value.
8.12
